study target: eledoisin binding, rat membranes (Rattus norvegicus, UniProt P16177)
Sequence (P16177 1-452): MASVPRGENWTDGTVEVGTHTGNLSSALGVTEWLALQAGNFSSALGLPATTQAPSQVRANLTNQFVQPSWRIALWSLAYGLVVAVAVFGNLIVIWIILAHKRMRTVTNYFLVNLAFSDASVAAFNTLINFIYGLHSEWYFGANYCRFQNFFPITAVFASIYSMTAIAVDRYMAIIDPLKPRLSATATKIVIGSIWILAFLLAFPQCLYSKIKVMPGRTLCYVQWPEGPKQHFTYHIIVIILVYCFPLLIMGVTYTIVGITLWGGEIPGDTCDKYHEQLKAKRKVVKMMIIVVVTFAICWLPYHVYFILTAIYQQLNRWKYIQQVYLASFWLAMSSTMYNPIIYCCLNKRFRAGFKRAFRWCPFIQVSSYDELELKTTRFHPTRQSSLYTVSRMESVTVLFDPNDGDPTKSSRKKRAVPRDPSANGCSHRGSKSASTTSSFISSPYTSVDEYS
value kind: pKi
One number for each entry, as −log10 of the molar value.

Give recorded pKi. O=C(NCC(CCN1CCC(Nc2ccccc2)CC1)c1ccc(Cl)c(Cl)c1)c1ccc(F)c2ccccc12 (stereo not shown)
6.40

The reported measurements were obtained from patent US5411971A.
